Target: turkey β1-AR Q237^5.68A (Meleagris gallopavo, UniProt P07700, Q237A)
Sequence (P07700 whole entry Q237A): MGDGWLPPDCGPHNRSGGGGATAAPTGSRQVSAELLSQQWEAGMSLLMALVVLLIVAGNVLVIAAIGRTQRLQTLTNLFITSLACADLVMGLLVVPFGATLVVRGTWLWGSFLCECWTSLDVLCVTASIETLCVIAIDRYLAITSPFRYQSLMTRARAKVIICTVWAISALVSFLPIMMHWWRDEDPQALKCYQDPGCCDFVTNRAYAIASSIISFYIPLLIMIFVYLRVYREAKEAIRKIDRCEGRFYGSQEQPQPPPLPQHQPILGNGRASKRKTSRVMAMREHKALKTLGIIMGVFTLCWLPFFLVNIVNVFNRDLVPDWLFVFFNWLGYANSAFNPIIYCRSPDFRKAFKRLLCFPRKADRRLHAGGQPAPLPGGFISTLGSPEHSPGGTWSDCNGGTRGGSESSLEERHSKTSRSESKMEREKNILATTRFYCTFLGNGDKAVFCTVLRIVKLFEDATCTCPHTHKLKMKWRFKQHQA
Test Readout: pEC50
Value format note: pEC50 is -log10 of concentration (mol/L); just state the number.

Fill in the recorded pEC50 for this compound, with turkey β1-AR Q237^5.68A (Meleagris gallopavo, UniProt P07700, Q237A) as test system: CC(CCc1ccc(O)cc1)NCCc1ccc(O)c(O)c1 (stereo not shown)
5.02

* * *

Target: turkey β1-AR W117^3.28A (Meleagris gallopavo, UniProt P07700, W117A)
Sequence (P07700 whole entry W117A): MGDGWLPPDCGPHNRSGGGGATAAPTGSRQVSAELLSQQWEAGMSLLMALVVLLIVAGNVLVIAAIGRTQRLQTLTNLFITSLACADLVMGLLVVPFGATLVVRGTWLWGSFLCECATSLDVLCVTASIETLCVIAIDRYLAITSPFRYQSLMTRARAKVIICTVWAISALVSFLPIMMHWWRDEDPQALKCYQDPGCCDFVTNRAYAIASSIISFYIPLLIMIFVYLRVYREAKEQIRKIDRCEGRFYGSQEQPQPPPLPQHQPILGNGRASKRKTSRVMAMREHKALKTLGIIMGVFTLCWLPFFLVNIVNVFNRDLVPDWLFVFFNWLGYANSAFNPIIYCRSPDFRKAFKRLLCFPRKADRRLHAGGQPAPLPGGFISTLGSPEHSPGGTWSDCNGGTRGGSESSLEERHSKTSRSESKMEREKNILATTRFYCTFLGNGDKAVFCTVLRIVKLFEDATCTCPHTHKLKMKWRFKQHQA
Assay: cell-based
Test Readout: pEC50
// field semantics: pEC50 = negative decimal log of concentration (mol/L)

Kindly state the measured pEC50 obtained for CC(CCc1ccc(O)cc1)NCCc1ccc(O)c(O)c1 (stereo not shown) with turkey β1-AR W117^3.28A (Meleagris gallopavo, UniProt P07700, W117A).
5.11

* * *

Target: turkey β1-AR E233^5.64A (Meleagris gallopavo, UniProt P07700, E233A)
Sequence (P07700 whole entry E233A): as the sequence (P07700 whole entry W117A) above, with A117W, E233A counted along it
Test Readout: pEC50
// scale note: pEC50 = -log10(conc_M); give the bare number

Form field: reported pEC50 of CC(CCc1ccc(O)cc1)NCCc1ccc(O)c(O)c1 (stereo not shown)
5.15

* * *

Biological target: turkey β1-AR Q150^ICL2A (Meleagris gallopavo, UniProt P07700, Q150A)
Sequence (P07700 whole entry Q150A): as the sequence (P07700 whole entry Q237A) above, with Q150A, A237Q counted along it
Type: cell-based
Test Readout: EC50 (µM)
Supply the numeric figure in µM, leaving out any unit text.

Name the recorded EC50 for CC(CCc1ccc(O)cc1)NCCc1ccc(O)c(O)c1 (stereo not shown) .
3.39

* * *

Target: turkey β1-AR V326^7.36A (Meleagris gallopavo, UniProt P07700, V326A)
Sequence (P07700 whole entry V326A): as the sequence (P07700 whole entry W117A) above, with A117W, V326A counted along it
Test: cell-based
Test Readout: EC50
Dear colleague, please send the value followed by its unit.

What value of EC50 on turkey β1-AR V326^7.36A (Meleagris gallopavo, UniProt P07700, V326A) does CC(CCc1ccc(O)cc1)NCCc1ccc(O)c(O)c1 (stereo not shown) have?
7.59 µM

* * *

Target: turkey β1-AR W330^7.40A (Meleagris gallopavo, UniProt P07700, W330A)
Sequence (P07700 whole entry W330A): as the sequence (P07700 whole entry W117A) above, with A117W, W330A counted along it
Test: cell-based
Protocol: CHO cells (transfected with a control empty vector or wild-type or mutant turkey β1-AR) were plated onto six-well plates, and were pre-incubated with culture medium buffered with 0.5 mM IBMX for 30 min at 37 °C[20]. […] After culture medium removal, cells were treated with 0.1 M HCl for 10 minutes at room temperature. After centrifugation, the supernatant was used for cAMP quantification using the Direct Cyclic AMP Enzyme Immunoassay kit (Enzo Life Sciences). […]
Test Readout: EC50 (nM)
Value expressed in nM; do not type the unit.

Value lookup for EC50; key = CC(CCc1ccc(O)cc1)NCCc1ccc(O)c(O)c1 (stereo not shown) [Dobutamine, dobutamine]
2950

* * *

Molecular target: turkey β1-AR S151^ICL2A (Meleagris gallopavo, UniProt P07700, S151A)
Test Readout: EC50 (µM)
Please state the figure in µM; there is no need to write the unit.

Which EC50 value is on record for CC(CCc1ccc(O)cc1)NCCc1ccc(O)c(O)c1 (stereo not shown) [Dobutamine, dobutamine] ?
10.5

* * *

Target: turkey β1-AR T203^ECL2A (Meleagris gallopavo, UniProt P07700, T203A)
Sequence (P07700 whole entry T203A): as the sequence (P07700 whole entry Q237A) above, with T203A, A237Q counted along it
Test: cell-based
Test Readout: pEC50
Remember the convention: pEC50 equals -log10 of concentration in molar.

Suppose we examine the compound CC(CCc1ccc(O)cc1)NCCc1ccc(O)c(O)c1 (stereo not shown) ; what pEC50 value has been reported?
5.80
